B1: Far upstream element-binding protein 3, residues 75 to 150; numbered along this chain, Q96I24 (parent)
chain: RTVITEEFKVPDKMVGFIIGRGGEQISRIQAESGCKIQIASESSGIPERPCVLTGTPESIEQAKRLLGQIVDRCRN

- Variants of: B1
- Assay notes: abundance fitness (aPCA) (normalised: wild type 0, dead -1); higher = more abundant; growth selection in yeast, the domain comes from the species named
- Reported conditions: Homo sapiens
Value kind: abundance fitness

K13V
-0.263
E48M
-0.048
K64G
-0.658
C74G
0.041
F17G
-0.06
S33T
-0.063

Let us move to another entry and its abundance fitness.
abundance fitness for S59A ?
-0.045

Taken from the Human Domainome abundance scans (Beltran et al. 2025).
